# system: Human PI3K beta (Homo sapiens, UniProt P42338)
# Construct: His (N); host or cells: SF9 insect cells (baculovirus)
# Sequence (P42338 whole entry): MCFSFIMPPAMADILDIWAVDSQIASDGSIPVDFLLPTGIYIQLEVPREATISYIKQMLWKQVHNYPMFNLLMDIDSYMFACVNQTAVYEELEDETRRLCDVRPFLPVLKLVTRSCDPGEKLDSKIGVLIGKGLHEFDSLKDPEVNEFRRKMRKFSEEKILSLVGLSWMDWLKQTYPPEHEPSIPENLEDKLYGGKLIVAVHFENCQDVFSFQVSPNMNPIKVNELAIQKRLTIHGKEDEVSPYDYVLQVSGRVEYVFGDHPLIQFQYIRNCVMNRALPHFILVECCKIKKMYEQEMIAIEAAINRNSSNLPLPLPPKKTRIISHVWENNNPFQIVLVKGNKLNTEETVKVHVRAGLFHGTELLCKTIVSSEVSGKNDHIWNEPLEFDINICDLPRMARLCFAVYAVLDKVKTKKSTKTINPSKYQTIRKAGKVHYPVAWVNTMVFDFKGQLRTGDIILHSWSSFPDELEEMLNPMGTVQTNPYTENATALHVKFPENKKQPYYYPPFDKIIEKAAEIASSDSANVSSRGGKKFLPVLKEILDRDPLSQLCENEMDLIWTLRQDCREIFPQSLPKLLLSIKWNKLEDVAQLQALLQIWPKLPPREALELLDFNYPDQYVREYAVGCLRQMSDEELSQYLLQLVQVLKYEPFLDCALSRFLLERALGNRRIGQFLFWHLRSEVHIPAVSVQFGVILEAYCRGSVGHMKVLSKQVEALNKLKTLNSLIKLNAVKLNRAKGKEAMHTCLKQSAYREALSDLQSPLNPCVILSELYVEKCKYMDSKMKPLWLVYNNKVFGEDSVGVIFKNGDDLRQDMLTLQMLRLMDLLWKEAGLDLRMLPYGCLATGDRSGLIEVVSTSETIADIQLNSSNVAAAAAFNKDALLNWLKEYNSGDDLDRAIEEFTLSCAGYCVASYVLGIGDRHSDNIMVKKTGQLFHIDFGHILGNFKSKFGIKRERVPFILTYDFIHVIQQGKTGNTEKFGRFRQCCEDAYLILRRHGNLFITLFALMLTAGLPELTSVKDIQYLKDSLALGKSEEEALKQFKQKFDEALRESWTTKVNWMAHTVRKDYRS
# Sequence (P27986 whole entry partner): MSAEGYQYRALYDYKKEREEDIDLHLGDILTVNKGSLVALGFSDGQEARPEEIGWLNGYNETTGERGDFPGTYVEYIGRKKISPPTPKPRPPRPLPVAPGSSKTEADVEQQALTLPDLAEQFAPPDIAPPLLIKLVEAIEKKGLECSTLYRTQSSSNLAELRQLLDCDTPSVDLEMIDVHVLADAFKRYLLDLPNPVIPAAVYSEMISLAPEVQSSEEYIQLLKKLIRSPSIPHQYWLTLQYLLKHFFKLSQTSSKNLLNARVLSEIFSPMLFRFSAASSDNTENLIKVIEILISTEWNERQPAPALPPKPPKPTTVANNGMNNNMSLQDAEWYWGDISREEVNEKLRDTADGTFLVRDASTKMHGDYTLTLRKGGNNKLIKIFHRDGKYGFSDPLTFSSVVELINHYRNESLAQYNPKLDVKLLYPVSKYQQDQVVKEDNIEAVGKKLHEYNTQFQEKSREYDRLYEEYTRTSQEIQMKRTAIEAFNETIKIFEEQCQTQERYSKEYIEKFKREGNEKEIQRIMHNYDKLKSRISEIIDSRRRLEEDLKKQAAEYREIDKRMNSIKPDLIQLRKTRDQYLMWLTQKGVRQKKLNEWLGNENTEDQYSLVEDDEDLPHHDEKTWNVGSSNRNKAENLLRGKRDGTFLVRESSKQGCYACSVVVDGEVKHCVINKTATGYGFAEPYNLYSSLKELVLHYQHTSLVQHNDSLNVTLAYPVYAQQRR
# experimental protocol: Human PI3K beta enzyme assay (HTRF)
# Format: biochemical
# conditions used: concentration not given; b1387 states 1.1 μM for PI3K α and β; read-out: p110 beta Percent Inhibition
# Experimental: The catalytic subunits of PI3Ks are cloned into either pDEST8(p110 alpha) or pDEST10(p110beta, p110delta, and p110gamma) as N-terminal His tagged fusion proteins using the Gateway system (Invitrogen, catalog#11804-010 for pDEST8 and 11806-015 for pDEST10). […] For the assay methods described above, test compound percent inhibition, at various concentrations, is calculated relative to control (DMSO and EDTA) treated samples. […]
readout: inhibition at 1.1 µM (%)

## Task Input COC(=O)NC(c1ccc2ccccc2c1)c1c(C(=O)O)sc(N2CCOCC2)c1C#N (centres unmarked) [Compound 354] , output reported inhibition at 1.1 µM.
## Result 111

## Task Input CC(=O)Nc1cc(-c2sc(-c3nnc[nH]3)c(C(O)c3ccc4ccccc4n3)c2C#N)ccn1 (centres unmarked) [Compound 153] , output reported inhibition at 1.1 µM.
## Result 84

## Task Input O=C(O)c1sc(N2CCOCC2)c(C#Cc2ccccc2)c1Cc1ccc(Cl)c(Cl)c1 [Compound 296] , output reported inhibition at 1.1 µM.
## Result 79

P: N#Cc1c(-c2ccncc2)sc(-c2nnc[nH]2)c1Cc1ccc2ccccc2c1 [Compound 148]
Q: COc1cnc(Cl)cc1-c1cc(C(O)c2ccc(Cl)cc2)c(-c2nnc[nH]2)s1 (centres unmarked) [Compound 197]
R: OC(c1ccccc1F)c1cc(-c2ccncc2)sc1-c1nnc[nH]1 (centres unmarked) [Compound 155]
## Task Highest inhibition at 1.1 µM first, then in falling order down to the smallest. Form field (ranking): labels in requested order.
## Result P, R, Q

I: O=C(O)c1sc(N2CCOCC2)nc1Cc1ccc2cccc(F)c2c1 [Compound 299]
II: CC(=O)Nc1cc(-c2cc(/C(=C/CCN(C)C)c3ccc(Cl)cc3)c(-c3nnc[nH]3)s2)ccn1 [Compound 225]
## Task Between item I and item II , which reported inhibition at 1.1 µM is smaller? # reply format: chosen label
## Result II
(II: 52%, I: 109%)

###

# system: Human PI3K gamma (Homo sapiens, UniProt P48736)
# Construct: His (N); host or cells: SF9 insect cells (baculovirus)
# Sequence (P48736 whole entry): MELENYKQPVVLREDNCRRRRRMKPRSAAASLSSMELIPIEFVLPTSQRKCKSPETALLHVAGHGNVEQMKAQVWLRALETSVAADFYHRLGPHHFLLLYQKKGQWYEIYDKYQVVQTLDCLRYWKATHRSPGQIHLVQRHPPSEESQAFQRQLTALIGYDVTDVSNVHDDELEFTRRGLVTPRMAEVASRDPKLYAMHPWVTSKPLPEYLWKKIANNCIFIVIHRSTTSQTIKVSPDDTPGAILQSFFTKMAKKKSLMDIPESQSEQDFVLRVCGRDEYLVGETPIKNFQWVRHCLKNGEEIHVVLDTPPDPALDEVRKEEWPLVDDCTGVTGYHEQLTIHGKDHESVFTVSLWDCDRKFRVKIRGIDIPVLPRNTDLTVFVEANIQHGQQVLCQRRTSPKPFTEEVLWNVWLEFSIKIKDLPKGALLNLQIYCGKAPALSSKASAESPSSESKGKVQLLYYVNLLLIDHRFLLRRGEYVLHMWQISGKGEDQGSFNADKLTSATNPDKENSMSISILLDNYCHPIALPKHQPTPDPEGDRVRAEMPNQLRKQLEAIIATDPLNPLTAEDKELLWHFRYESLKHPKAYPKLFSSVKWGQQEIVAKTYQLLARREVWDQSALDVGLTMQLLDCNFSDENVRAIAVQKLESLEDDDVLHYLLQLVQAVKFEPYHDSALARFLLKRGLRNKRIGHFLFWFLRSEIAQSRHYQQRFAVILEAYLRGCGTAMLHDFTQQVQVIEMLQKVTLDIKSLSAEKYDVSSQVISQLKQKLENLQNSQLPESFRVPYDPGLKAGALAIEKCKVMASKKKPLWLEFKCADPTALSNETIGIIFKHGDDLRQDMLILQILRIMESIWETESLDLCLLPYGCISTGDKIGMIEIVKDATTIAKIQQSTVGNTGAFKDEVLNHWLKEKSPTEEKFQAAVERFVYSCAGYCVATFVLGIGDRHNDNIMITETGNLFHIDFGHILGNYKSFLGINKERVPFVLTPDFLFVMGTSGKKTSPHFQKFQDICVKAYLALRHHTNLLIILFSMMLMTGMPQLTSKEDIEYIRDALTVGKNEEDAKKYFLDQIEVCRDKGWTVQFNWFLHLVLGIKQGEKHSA
# experimental protocol: Human PI3K gamma enzyme assay (HTRF)
# Assay type: biochemical
# conditions used: concentration not given; b1389 states 1.0 μM for PI3K δ and γ
readout: p110 gamma Percent Inhibition (%)

## Task Input CC(=O)Nc1cc(-c2cc(C(c3ccc(Cl)cc3)N3CCC[C@@H]3CO)c(-c3nnc[nH]3)s2)ccn1 (single isomer, unassigned) , output reported p110 gamma Percent Inhibition.
## Result 18

## Task Input OC(c1ccc2ccccc2c1)c1cc(-c2ccncc2)sc1-c1nnc[nH]1 (stereo not shown) , output reported p110 gamma Percent Inhibition.
## Result 47

## Task Input CN(C)C(c1ccc(Cl)c(Cl)c1)c1c(C(=O)O)sc(N2CCOCC2)c1C#N (stereo not shown) [Compound 362] , output reported p110 gamma Percent Inhibition.
## Result 44

## Task Input COc1cc(C(O)c2cc(-c3ccnnc3)sc2-c2nnc[nH]2)c(F)cc1Cl (stereo not shown) [Compound 282] , output reported p110 gamma Percent Inhibition.
## Result 21

## Task Input N#Cc1c(N2CCOCC2)sc(C(=O)O)c1C(CCO)c1ccc2ccccc2c1 (stereo not shown) [Compound 363] , output reported p110 gamma Percent Inhibition.
## Result 65

A: COc1cc(C(O)c2cc(-c3ccnc(C)c3)sc2-c2nnc[nH]2)c(F)cc1Cl (stereo not shown) [Compound 265]
B: CC(=O)Nc1cc(-c2cc(C(c3ccc(Cl)cc3)N3CCC[C@H]3CO)c(-c3nnc[nH]3)s2)ccn1 (single isomer, unassigned) [Compound 259]
## Task Between item A and item B , which reported p110 gamma Percent Inhibition is smaller? # reply format: chosen label
## Result B

The origin of these recorded values is patent US8796268B2.
